target: UniProtKB P35348; experiment: FLIPR Ca^2+ flux agonist assay at Alpha1A; assay type: cell-based
Sequence (P35348 whole entry, looked up): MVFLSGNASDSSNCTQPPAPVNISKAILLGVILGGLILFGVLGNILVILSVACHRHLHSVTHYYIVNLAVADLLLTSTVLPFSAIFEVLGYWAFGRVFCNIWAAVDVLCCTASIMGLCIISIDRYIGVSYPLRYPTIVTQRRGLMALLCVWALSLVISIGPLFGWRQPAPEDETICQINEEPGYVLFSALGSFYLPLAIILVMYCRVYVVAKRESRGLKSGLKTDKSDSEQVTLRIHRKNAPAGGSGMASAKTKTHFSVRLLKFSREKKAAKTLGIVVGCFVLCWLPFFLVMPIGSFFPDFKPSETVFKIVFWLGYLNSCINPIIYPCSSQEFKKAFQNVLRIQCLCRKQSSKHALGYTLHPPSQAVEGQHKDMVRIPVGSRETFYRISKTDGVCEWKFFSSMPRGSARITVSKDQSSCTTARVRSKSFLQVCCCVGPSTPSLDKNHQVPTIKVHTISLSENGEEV
Entries annotated with measured Alpha 1A % Act @ Max Dose

{"compound": "CCN(CC)C(=O)[C@@H]1C=C2c3cccc4[nH]cc(c34)C[C@H]2N(CCc2ccccc2OC)C1", "Alpha 1A % Act @ Max Dose, %": 28.23}
{"compound": "CCCN1C[C@H](C(=O)N2[C@@H](C)C[C@@H]2C)C=C2c3cccc4[nH]cc(c34)C[C@H]21", "Alpha 1A % Act @ Max Dose, %": 118.64}
{"compound": "CCCN1C[C@H](C(=O)N[C@H](C)CC)C=C2c3cccc4[nH]cc(c34)C[C@H]21", "Alpha 1A % Act @ Max Dose, %": 124.7}
{"compound": "CCCN1C[C@H](C(=O)N(CC)CC)C=C2c3cccc4[nH]cc(c34)C[C@H]21", "Alpha 1A % Act @ Max Dose, %": 80.6}
{"compound": "CCN(CC)C(=O)[C@@H]1C=C2c3cccc4[nH]cc(c34)C[C@H]2N(C)C1 [LSD, lysergic acid diethylamide, reference compound]", "Alpha 1A % Act @ Max Dose, %": 60.3}
{"compound": "CCN(CC)C(=O)[C@@H]1C=C2c3cccc4[nH]cc(c34)C[C@H]2N(CCC(F)(F)F)C1", "Alpha 1A % Act @ Max Dose, %": 2.08}
{"compound": "CCN(CC)C(=O)[C@@H]1C=C2c3cccc4[nH]cc(c34)C[C@H]2N(CC2CC2)C1", "Alpha 1A % Act @ Max Dose, %": 80.79}
{"compound": "CCN(CC)C(=O)[C@@H]1C=C2c3cccc4[nH]cc(c34)C[C@H]2N(Cc2ccccc2OC)C1", "Alpha 1A % Act @ Max Dose, %": 26.56}
{"compound": "CCN(CC)C(=O)[C@@H]1C=C2c3cccc4[nH]cc(c34)C[C@H]2N(CCCF)C1", "Alpha 1A % Act @ Max Dose, %": 109.68}

###

molecular target: 5-HT2A receptor (Homo sapiens (Human)); type: cell-based; details: Ca^2+ flux, HEK293

{"compound": "CCCN1C[C@H](C(=O)N2[C@@H](C)C[C@@H]2C)C=C2c3cccc4[nH]cc(c34)C[C@H]21", "study.system": "5-HT2A receptor (Homo sapiens (Human))", "5-HT2A % Act @ Max Dose [%]": 97.6}
{"compound": "CCN(CC)C(=O)[C@@H]1C=C2c3cccc4[nH]cc(c34)C[C@H]2N(Cc2ccccc2OC)C1", "study.system": "5-HT2A receptor (Homo sapiens (Human))", "5-HT2A % Act @ Max Dose [%]": 49.44}
{"compound": "C[C@H]1C[C@H](C)N1C(=O)[C@@H]1C=C2c3cccc4[nH]cc(c34)C[C@H]2N(C)C1", "study.system": "5-HT2A receptor (Homo sapiens (Human))", "5-HT2A % Act @ Max Dose [%]": 110.03}
{"compound": "CCC(CC)NC(=O)[C@H]1C=C2c3cccc4[nH]cc(c34)C[C@H]2N(C)C1 [Int14a]", "study.system": "5-HT2A receptor (Homo sapiens (Human))", "5-HT2A % Act @ Max Dose [%]": 32.98}
{"compound": "CCC(CC)NC(=O)[C@@H]1C=C2c3cccc4[nH]cc(c34)C[C@H]2N(C)C1", "study.system": "5-HT2A receptor (Homo sapiens (Human))", "5-HT2A % Act @ Max Dose [%]": 93.33}

###

Entries annotated with measured half-life at 1 μM
test: Metabolic stability in rat liver microsomes (RLM); assay type: in vitro ADME; details: both sexes, rat, pooled rat liver microsomes, pH 7.4, NADPH
experimental.readout: half-life at 1 μM (min)

{"compound": "CCC(CC)NC(=O)[C@H]1C=C2c3cccc4[nH]cc(c34)C[C@H]2N(C)C1 [Int14a]", "experimental.readout": "half-life at 1 μM", "unit.text": "min", "reported": 1.8}
{"compound": "CC[C@@H](C)NC(=O)[C@@H]1C=C2c3cccc4[nH]cc(c34)C[C@H]2N(C)C1", "experimental.readout": "half-life at 1 μM", "unit.text": "min", "reported": 99.5}
{"compound": "CCN(CC)C(=O)[C@@H]1C=C2c3cccc4[nH]cc(c34)C[C@H]2N(C)C1 [LSD, lysergic acid diethylamide, reference compound]", "experimental.readout": "half-life at 1 μM", "unit.text": "min", "reported": 60.2}
{"compound": "CCC[C@@H](C)NC(=O)[C@@H]1C=C2c3cccc4[nH]cc(c34)C[C@H]2N(CCC)C1", "experimental.readout": "half-life at 1 μM", "unit.text": "min", "reported": 1.61}
{"compound": "CCN(CC)C(=O)[C@@H]1C=C2c3cccc4[nH]cc(c34)C[C@H]2N(Cc2cccc(OC)c2)C1", "experimental.readout": "half-life at 1 μM", "unit.text": "min", "reported": 5.3}
{"compound": "C=CCN1C[C@H](C(=O)N[C@H](C)CC)C=C2c3cccc4[nH]cc(c34)C[C@H]21", "experimental.readout": "half-life at 1 μM", "unit.text": "min", "reported": 7.7}
{"compound": "CC[C@@H](C)NC(=O)[C@H]1C=C2c3cccc4[nH]cc(c34)C[C@H]2N(CC)C1", "experimental.readout": "half-life at 1 μM", "unit.text": "min", "reported": 3.1}
{"compound": "CCN(CC)C(=O)[C@@H]1C=C2c3cccc4[nH]cc(c34)C[C@H]2N(CCCF)C1", "experimental.readout": "half-life at 1 μM", "unit.text": "min", "reported": 12}
{"compound": "CCN(CC)C(=O)[C@@H]1C=C2c3cccc4[nH]cc(c34)C[C@H]2N(CCc2ccccc2OC)C1", "experimental.readout": "half-life at 1 μM", "unit.text": "min", "reported": 1.16}
{"compound": "CCCN1C[C@H](C(=O)N2[C@@H](C)C[C@@H]2C)C=C2c3cccc4[nH]cc(c34)C[C@H]21", "experimental.readout": "half-life at 1 μM", "unit.text": "min", "reported": 12.8}
{"compound": "CCN(CC)C(=O)[C@@H]1C=C2c3cccc4[nH]cc(c34)C[C@H]2N(CCc2ccccn2)C1", "experimental.readout": "half-life at 1 μM", "unit.text": "min", "reported": 4.2}
{"compound": "CCN(CC)C(=O)[C@@H]1C=C2c3cccc4[nH]cc(c34)C[C@H]2N(CC2CC2)C1", "experimental.readout": "half-life at 1 μM", "unit.text": "min", "reported": 27.7}
{"compound": "CC[C@@H](C)NC(=O)[C@H]1C=C2c3cccc4[nH]cc(c34)C[C@H]2N(C)C1", "experimental.readout": "half-life at 1 μM", "unit.text": "min", "reported": 3.5}
{"compound": "CCN(CC)C(=O)[C@H]1C=C2c3cccc4[nH]cc(c34)C[C@H]2N(CCCF)C1", "experimental.readout": "half-life at 1 μM", "unit.text": "min", "reported": 9.67}
{"compound": "CCCN1C[C@H](C(=O)NC(CC)CC)C=C2c3cccc4[nH]cc(c34)C[C@H]21", "experimental.readout": "half-life at 1 μM", "unit.text": "min", "reported": 1.66}
{"compound": "CCN(CC)C(=O)[C@@H]1C=C2c3cccc4[nH]cc(c34)C[C@H]2N(Cc2ccc(OC)cc2)C1", "experimental.readout": "half-life at 1 μM", "unit.text": "min", "reported": 10}
{"compound": "CCCN1C[C@@H](C(=O)N[C@H](C)CC)C=C2c3cccc4[nH]cc(c34)C[C@H]21", "experimental.readout": "half-life at 1 μM", "unit.text": "min", "reported": 1.4}
{"compound": "CCC(CC)NC(=O)[C@@H]1C=C2c3cccc4[nH]cc(c34)C[C@H]2N(C)C1", "experimental.readout": "half-life at 1 μM", "unit.text": "min", "reported": 38}
{"compound": "CCN(CC)C(=O)[C@@H]1C=C2c3cccc4[nH]cc(c34)C[C@H]2N(Cc2ccccc2O)C1", "experimental.readout": "half-life at 1 μM", "unit.text": "min", "reported": 2.2}
{"compound": "CCC[C@@H](C)NC(=O)[C@@H]1C=C2c3cccc4[nH]cc(c34)C[C@H]2N(C)C1", "experimental.readout": "half-life at 1 μM", "unit.text": "min", "reported": 27.9}
{"compound": "CCC[C@@H](C)NC(=O)[C@H]1C=C2c3cccc4[nH]cc(c34)C[C@H]2N(C)C1 [Int17a]", "experimental.readout": "half-life at 1 μM", "unit.text": "min", "reported": 1.96}
{"compound": "CCN(CC)C(=O)[C@@H]1C=C2c3cccc4[nH]cc(c34)C[C@H]2N(CCc2ccc(OC)cc2)C1", "experimental.readout": "half-life at 1 μM", "unit.text": "min", "reported": 4.3}
{"compound": "CCN(CC)C(=O)[C@@H]1C=C2c3cccc4[nH]cc(c34)C[C@H]2N(CCC(F)(F)F)C1", "experimental.readout": "half-life at 1 μM", "unit.text": "min", "reported": 5.9}
{"compound": "CCCN1C[C@H](C(=O)N[C@H](C)CC)C=C2c3cccc4[nH]cc(c34)C[C@H]21", "experimental.readout": "half-life at 1 μM", "unit.text": "min", "reported": 4.4}
{"compound": "C=CCN1C[C@@H](C(=O)N[C@H](C)CC)C=C2c3cccc4[nH]cc(c34)C[C@H]21", "experimental.readout": "half-life at 1 μM", "unit.text": "min", "reported": 1.7}
{"compound": "CCCN1C[C@H](C(=O)N(CC)CC)C=C2c3cccc4[nH]cc(c34)C[C@H]21", "experimental.readout": "half-life at 1 μM", "unit.text": "min", "reported": 16.2}
